Numbers sourced from patent US7462600B2.

Overview of recorded MIC S. pneumo. 1175 for various molecules
Tested on: Streptococcus pneumoniae 1175
Type: cell-based
Measurement Parameters: Streptococcus pneumoniae 1175; microtiter broth dilution

Worked cases, answers included:
CCC1OC(=O)C(C)C(=O)C(C)C(OC2OC(C)CC(N(C)C)C2O)C(C)(OC)CC(C)C(=O)C(C)C2N(C3CN(C(=O)Nc4cccc5nccnc45)C3)C(=O)OC12C (stereo not shown) [Example 2.09, N-(quinoxalin-8-yl) aminocarbonyl]    0.25 µg/mL
CCC1OC(=O)C(C)C(=O)C(C)C(OC2OC(C)CC(N(C)C)C2O)C(C)(OC)CC(C)C(=O)C(C)C2N(CC3CN(Cc4n[nH]c5ccccc45)C3)C(=O)OC12C (stereo not shown) [4.22]    0.25 µg/mL
CCc1nn(C)c2ccc(S(=O)(=O)N3CC(N4C(=O)OC5(C)C(CC)OC(=O)C(C)C(=O)C(C)C(OC6OC(C)CC(N(C)C)C6O)C(C)(OC)CC(C)C(=O)C(C)C45)C3)cc12 (stereo not shown) [Example 3.117]    <0.063 µg/mL
CCC1OC(=O)C(C)C(=O)C(C)C(OC2OC(C)CC(N(C)C)C2O)C(C)(OC)CC(C)C(=O)C(C)C2N(C3CN(Cc4ccncc4F)C3)C(=O)OC12C (stereo not shown) [Example 1.78]    <0.063 µg/mL
CCC1OC(=O)C(C)C(=O)C(C)C(OC2OC(C)CC(N(C)C)C2O)C(C)(OC)CC(C)C(=O)C(C)C2N(CC3CN(Cc4cccnc4)C3)C(=O)OC12C (stereo not shown) [4.04]    0.25 µg/mL
CCC1OC(=O)C(C)C(=O)C(C)C(OC2OC(C)CC(N(C)C)C2O)C(C)(OC)CC(C)C(=O)C(C)C2N(C3CN(S(=O)(=O)c4cccc5cnncc45)C3)C(=O)OC12C (stereo not shown) [Example 3.92]    <0.06 µg/mL
CCC1OC(=O)C(C)C(=O)C(C)C(OC2OC(C)CC(N(C)C)C2O)C(C)(OC)CC(C)C(=O)C(C)C2N(C3CN(S(=O)(=O)c4cccc5nsnc45)C3)C(=O)OC12C (stereo not shown) [Example 3.06]    <0.06 µg/mL
CCC1OC(=O)C(C)C(=O)C(C)C(OC2OC(C)CC(N(C)C)C2O)C(C)(OC)CC(C)C(=O)C(C)C2N(CC3CN(C(=O)c4ccc5cnccc5n4)C3)C(=O)OC12C.O=CO (stereo not shown) [4.41]    <0.06 µg/mL
CCC1OC(=O)C(C)C(=O)C(C)C(OC2OC(C)CC(N(C)C)C2O)C(C)(OC)CC(C)C(=O)C(C)C2N(CC3CN(Cc4cnc5ncccn45)C3)C(=O)OC12C (stereo not shown) [4.26]    2 µg/mL

Turning now to a further record.
Task: Can you look up the measured MIC S. pneumo. 1175 of CCC1OC(=O)C(C)C(=O)C(C)C(OC2OC(C)CC(N(C)C)C2O)C(C)(OC)CC(C)C(=O)C(C)C2N(CC3CN(Cc4ccn(-c5ccccn5)n4)C3)C(=O)OC12C.O=CO (stereo not shown) [4.31] for me?
Result: <0.06 µg/mL

---

Tested on: Streptococcus pneumoniae 1175
Assay type: cell-based
Measurement Parameters: Streptococcus pneumoniae 1175; microtiter broth dilution
Property: MIC S. pneumo. 1175 (µg/mL)
Return type: number; implicit unit µg/mL.

Worked cases, answers included:
CCC1OC(=O)C(C)C(=O)C(C)C(OC2OC(C)CC(N(C)C)C2O)C(C)(OC)CC(C)C(=O)C(C)C2N(C3CN(C(=O)c4ccc(-n5ccnc5)cc4)C3)C(=O)OC12C (stereo not shown)    0.25
CCC1OC(=O)C(C)C(=O)C(C)C(OC2OC(C)CC(N(C)C)C2O)C(C)(OC)CC(C)C(=O)C(C)C2N(C3CN(Cc4n[nH]c5ccccc45)C3)C(=O)OC12C (stereo not shown)    1
CCC1OC(=O)C(C)C(=O)C(C)C(OC2OC(C)CC(N(C)C)C2O)C(C)(OC)CC(C)C(=O)C(C)C2N(C3CN(S(=O)(=O)c4ccc(OC)c5nccnc45)C3)C(=O)OC12C (stereo not shown)    0.25

Task: Can you look up the measured MIC S. pneumo. 1175 of CCC1OC(=O)C(C)C(=O)C(C)C(OC2OC(C)CC(N(C)C)C2O)C(C)(OC)CC(C)C(=O)C(C)C2N(C3CN(Cc4ccnc5c4ncn5C)C3)C(=O)OC12C (stereo not shown) for me?
Result: 1

Task: Can you look up the measured MIC S. pneumo. 1175 of CCC1OC(=O)C(C)C(=O)C(C)C(OC2OC(C)CC(N(C)C)C2O)C(C)(OC)CC(C)C(=O)C(C)C2N(C3CN(S(=O)(=O)c4ccccc4S(C)(=O)=O)C3)C(=O)OC12C (stereo not shown) for me?
Result: 0.25

---

Overview of recorded MIC H. influenzae 1218 for various molecules
Tested on: Haemophilus influenzae 1218
Assay Comment: MIC, microtiter broth dilution (NCCLS M100-S14), H. influenzae 1218 (susceptible)
Assay type: cell-based
Measurement Parameters: Haemophilus influenzae 1218
Return type: number; implicit unit mg/L.

Worked cases, answers included:
CCC1OC(=O)C(C)C(=O)C(C)C(OC2OC(C)CC(N(C)C)C2O)C(C)(OC)CC(C)C(=O)C(C)C2N(C3CN(S(=O)(=O)c4ncn5ccccc45)C3)C(=O)OC12C (centres unmarked) [Example 3.19]    0.25
CCC1OC(=O)C(C)C(=O)C(C)C(OC2OC(C)CC(N(C)C)C2O)C(C)(OC)CC(C)C(=O)C(C)C2N(C3CN(C(c4ccccc4)c4cccnc4)C3)C(=O)OC12C (single isomer, unassigned) [Example 1.66, phenyl-(pyridin-3-yl)methyl (*)]    2
CCC1OC(=O)C(C)C(=O)C(C)C(OC2OC(C)CC(N(C)C)C2O)C(C)(OC)CC(C)C(=O)C(C)C2N(C3CN(Cc4ccnc5ccncc45)C3)C(=O)OC12C (centres unmarked) [Example 1.27]    0.5

Task: Tell me reported MIC H. influenzae 1218 for CCC1OC(=O)C(C)C(=O)C(C)C(OC2OC(C)CC(N(C)C)C2O)C(C)(OC)CC(C)C(=O)C(C)C2N(C3CN(Cc4c(OC)ccc5ncccc45)C3)C(=O)OC12C (centres unmarked) [Example 1.102] , tested with Haemophilus influenzae 1218.
Result: 2

Task: Tell me reported MIC H. influenzae 1218 for CCC1OC(=O)C(C)C(=O)C(C)C(OC2OC(C)CC(N(C)C)C2O)C(C)(OC)CC(C)C(=O)C(C)C2N(CC3CN(Cc4ccn[nH]4)C3)C(=O)OC12C (centres unmarked) [4.09] , tested with Haemophilus influenzae 1218.
Result: 0.12

---

Overview of recorded MIC S. pneumo. 1175 for various compounds
Test system: Streptococcus pneumoniae 1175
Type: cell-based
Measurement Parameters: S. pneumoniae 1175 (mefA); microtiter broth dilution
Return type: number; implicit unit µg/mL.

Worked cases, answers included:
CCC1OC(=O)C(C)C(=O)C(C)C(OC2OC(C)CC(N(C)C)C2O)C(C)(OC)CC(C)C(=O)C(C)C2N(CC3CCN(Cc4nc5ccccc5n4C)C3)C(=O)OC12C (centres unmarked)    2
CCC1OC(=O)C(C)(F)C(=O)C(C)C(OC2OC(C)CC(N(C)C)C2O)C(C)(OC)CC(C)C(=O)C(C)C2N(CC3CCCN3C(=O)c3cc4ccccn4n3)C(=O)OC12C (centres unmarked)    0.12
CCC1OC(=O)C(C)C(=O)C(C)C(OC2OC(C)CC(N(C)C)C2O)C(C)(OC)CC(C)C(=O)C(C)C2N(CC3CCN(Cc4ccno4)CC3)C(=O)OC12C (centres unmarked)    0.5

Task: Tell me reported MIC S. pneumo. 1175 for CCC1OC(=O)C(C)C(=O)C(C)C(OC2OC(C)CC(N(C)C)C2O)C(C)(OC)CC(C)C(=O)C(C)C2N(CC3CCCN3C(=O)c3cc4ccncc4[nH]3)C(=O)OC12C (centres unmarked) , tested with Streptococcus pneumoniae 1175.
Result: 0.12

Task: Tell me reported MIC S. pneumo. 1175 for CCC1OC(=O)C(C)C(=O)C(C)C(OC2OC(C)CC(N(C)C)C2O)C(C)(OC)CC(C)C(=O)C(C)C2N(CC3CCN(Cc4cccc5nccnc45)C3)C(=O)OC12C (centres unmarked) , tested with Streptococcus pneumoniae 1175.
Result: 0.25

Task: Tell me reported MIC S. pneumo. 1175 for CCC1OC(=O)C(C)C(=O)C(C)C(OC2OC(C)CC(N(C)C)C2O)C(C)(OC)CC(C)C(=O)C(C)C2N(CC3CCCN3C(=O)c3ccc4cccnc4n3)C(=O)OC12C.O=CO (centres unmarked) , tested with Streptococcus pneumoniae 1175.
Result: 0.25

Task: Tell me reported MIC S. pneumo. 1175 for CCC1OC(=O)C(C)C(=O)C(C)C(OC2OC(C)CC(N(C)C)C2O)C(C)(OC)CC(C)C(=O)C(C)C2N(C3CCN(Cc4n[nH]c5ccccc45)C3)C(=O)OC12C (centres unmarked) , tested with Streptococcus pneumoniae 1175.
Result: 0.12

Task: Tell me reported MIC S. pneumo. 1175 for CCC1OC(=O)C(C)C(=O)C(C)C(OC2OC(C)CC(N(C)C)C2O)C(C)(OC)CC(C)C(=O)C(C)C2N(CC3CCN(Cc4c[nH]nn4)C3)C(=O)OC12C (centres unmarked) , tested with Streptococcus pneumoniae 1175.
Result: 4

Task: Tell me reported MIC S. pneumo. 1175 for CCC1OC(=O)C(C)C(=O)C(C)C(OC2OC(C)CC(N(C)C)C2O)C(C)(OC)CC(C)C(=O)C(C)C2N(CC3CCCN3Cc3c[nH]nn3)C(=O)OC12C (centres unmarked) , tested with Streptococcus pneumoniae 1175.
Result: 2

Task: Tell me reported MIC S. pneumo. 1175 for CCC1OC(=O)C(C)C(=O)C(C)C(OC2OC(C)CC(N(C)C)C2O)C(C)(OC)CC(C)C(=O)C(C)C2N(CC3CCCN3C(=O)c3cccc4cccnc34)C(=O)OC12C (centres unmarked) , tested with Streptococcus pneumoniae 1175.
Result: 2
